Source of measurements: patent US8461329B2

Each entry below carries its recorded pIC50.
target: CRTH2 (KB8 cells) (Homo sapiens); construct: host or cells: KB8 cells (human CRTH2 expression cell); experiment: CRTH2 antagonist test (PGD2-induced intracellular calcium ion concentration increase in KB8 cells); format: cell-based; settings: PGD2 final concentration 100 nM, Fluo-4-AM fluorescence, read-out: antagonist activity (IC50 value, inhibition of calcium ion concentration increase)
Sequence (Q9Y5Y4 whole entry): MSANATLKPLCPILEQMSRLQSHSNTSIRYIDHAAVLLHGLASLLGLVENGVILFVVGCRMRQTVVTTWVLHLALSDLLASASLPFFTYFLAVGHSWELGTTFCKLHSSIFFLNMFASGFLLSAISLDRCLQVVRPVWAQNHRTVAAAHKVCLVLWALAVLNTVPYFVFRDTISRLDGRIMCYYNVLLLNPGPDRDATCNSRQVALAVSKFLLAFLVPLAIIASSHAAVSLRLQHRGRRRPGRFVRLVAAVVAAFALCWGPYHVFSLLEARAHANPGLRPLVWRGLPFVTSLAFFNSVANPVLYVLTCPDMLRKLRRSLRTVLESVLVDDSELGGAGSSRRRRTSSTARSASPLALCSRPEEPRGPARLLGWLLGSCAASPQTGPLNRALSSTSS
pIC50: −log10 of the molar value.

Answered examples (2):
>>> value_observed("COc1ccc2c(C(=O)c3ccc(C(=O)NCCc4ccc(Cl)cc4)cc3)ncc(CC(=O)O)c2c1")
"6.30 to 7.30"
>>> value_observed("Cc1ccc(F)cc1CCNC(=O)c1ccc(Cc2ncc(CC(=O)O)c3ccccc23)cc1")
"6.30 to 7.30"

[Q] pIC50 for Cc1cc(C(=O)Nc2ccc(C(=O)c3ncc(CC(=O)O)c4ccccc34)cc2)ccc1Cl ?
[A] > 7.30

[Q] pIC50 for O=C(NCCc1ccc(Cl)cc1)c1ccc(Cc2ncc(Cc3nnn[nH]3)c3ccccc23)cc1 ?
[A] ≤ 6.00
